tested on: A498 renal; test: NCI tumour cell line growth inhibition, 48 h
Listed here are molecules together with their documented GI50.

| line_notation | GI50 |
| --- | --- |
| Cc1cn(Cc2ccccc2CCl)c(=O)n(Cc2ccccc2CCl)c1=O | 10.6 µM |
| COc1cc2nc(N3CCC[C@@H](NC4=CC(=O)c5ccccc5C4=O)C3)nc(N)c2cc1OC | 18.5 µM |
| CN(CCCN(C)CCC1CCCCC1)CCC1CCCCC1 | 5.14 µM |
| C=C1C(=O)O[C@H]2[C@H]1CC/C(CNC(=O)/C=C/c1ccc(Cl)cc1Cl)=C\CC[C@@]1(C)O[C@@H]21 | 1.47 µM |

----------
test system: HT29 colon; assay: NCI tumour cell line growth inhibition, 48 h; in the data active = GI50 below about 0.43 µM; inactive = the rest
Possible outcomes: active, inactive

| compound | class_label |
| --- | --- |
| COc1cc2c(cc1OCCCCCn1c3ccccc3c3ccccc31)N=C[C@@H]1CCCN1C2=O | inactive |
| Cc1ccc(-c2c3c(N)c4c(nc3nc3c2c(C)nn3-c2ccccc2)CCC4)cc1 | inactive |
| CCCCN(CCCC)CCC(O)c1cc2ccc(C(F)(F)F)cc2c2cc(C(F)(F)F)ccc12 (stereo not given) | inactive |
| COc1ccc2c(c1)C=C1CSCC3=Cc4cc(OC)ccc4OC13O2 | active |
| Nc1ccccc1C#C/C=C\C#Cc1ccccc1F | inactive |
| COc1ccc2c(c1OC)C(=O)O[C@@H]2[C@H]1c2c(c(Br)c3c(c2OC)OCO3)CCN1C | inactive |
| CCc1nc(N)nc(N)c1C#CC(C)c1cc(-c2ccnc(C)c2)c2oc(C)nc2c1 (stereo not given) | active |
| CCc1c2c(nc3ccc(OCc4ccc(B5OC(C)(C)C(C)(C)O5)cc4)cc13)-c1cc3c(c(=O)n1C2)COC(=O)[C@]3(O)CC | active |
| CC1=NN(C(=O)c2nn(-c3ccc(Cl)cc3)cc2O)C(=O)C1 | inactive |
| Cc1ccc(S(=O)(=O)Nc2cc(Sc3ccccc3)c(O)c3ccccc23)cc1 | inactive |
| CC(=O)n1c(-c2ccc(Cl)c(Cl)c2)cn(-c2ccc(Cl)cc2)c1=O | inactive |
| Oc1ccc(O)c2c1C1(Cl)C(Cl)=C(Cl)C2(Cl)C1(Cl)Cl | inactive |
| Nc1cc(-c2ccccc2)n(C(=O)Nc2ccc(Oc3ccccc3)cc2)n1 | inactive |
| NCCSC(C[N+](=O)[O-])c1ccccc1Cl (stereo not given) | inactive |
| COc1ccc(CN=C(N)N=C(N)N)cc1OC | inactive |

----------
Listed here are compounds together with their documented TGI.
tested on: SK-MEL-5 melanoma; assay: NCI tumour cell line growth inhibition, 48 h

| compound | TGI |
| --- | --- |
| CCCc1cc(-c2ccc(-c3cc(CCC)c(C=O)[nH]3)s2)[nH]c1C=O | > 100 µM |
| OC1c2ccccc2C2C(O)c3ccccc3C12 (stereo unspecified) | > 100 µM |
| O=C(O)CN=c1c2ccccc2n(O)c2ccccc12 | > 100 µM |
| COc1cc(-c2oc3c(OC)c(O)cc(O)c3c(=O)c2OC)ccc1O | 20.4 µM |
| CC(=O)O/N=C/c1cc2c(cc1Br)OCO2 | > 349 µM |
| COc1cc2nc(N3CCC[C@@H](NC4=CC(=O)c5ccccc5C4=O)C3)nc(N)c2cc1OC | 3.44 µM |
| O=[N+]([O-])c1ccc2[nH]c(O)c(N=NC(=S)Nc3ccccc3)c2c1 | 13.5 µM |
| N#CCN(Cc1ccccc1)[C@@H]1CCC[C@]1(O)C#Cc1ccc2c(c1)OCO2 | 30 µM |
| COc1cc2nncc(SCc3ccc(Cl)c(Cl)c3)c2cc1OC | > 100 µM |
| CN(C)C(=S)SCC(N)=O | > 100 µM |
| Cc1ccc(S(=O)(=O)Nc2cc(Sc3ccccc3)c(O)c3ccccc23)cc1 | 13.1 µM |

----------
system: DU-145 prostate; experiment: NCI tumour cell line growth inhibition, 48 h
Listed here are molecules together with their documented TGI.

| molecule | measurement_target | TGI |
| --- | --- | --- |
| CC1(C)CC2(C)ON=C(c3ccccc3)N2c2ccccc2N1 (configuration not stated) | DU-145 prostate | > 100 µM |
| O=C(NN1C(=O)CSC12CCC(c1ccccc1)CC2)c1[nH]c2ccc(F)cc2c1-c1ccccc1 (configuration not stated) | DU-145 prostate | 33.6 µM |
| O=[N+]([O-])c1ccc2[nH]c(O)c(N=NC(=S)Nc3ccccc3)c2c1 | DU-145 prostate | 67.3 µM |
| CC1=NN(C(=O)c2nn(-c3ccc(Cl)cc3)cc2O)C(=O)C1 | DU-145 prostate | > 100 µM |
| NCCCCCNOCCCN | DU-145 prostate | > 100 µM |
| COc1cc2nc(N3CCC[C@@H](NC4=CC(=O)c5ccccc5C4=O)C3)nc(N)c2cc1OC | DU-145 prostate | 3.78 µM |
| CNC(=O)c1cncc(/C=C/c2c(Cl)cccc2Cl)c1 | DU-145 prostate | > 25 µM |
| CCOC(=O)/C(=N/Nc1ccc(Cl)cc1)N1C(=S)C=C(C)NN(C)C1=S | DU-145 prostate | > 100 µM |
| CC(=O)Nc1nnc(S(=O)(=O)NC(=S)Nc2ccc(Cl)cc2)s1 | DU-145 prostate | > 100 µM |
| Cn1c(=O)sc2cc(C(=S)N3CCN(c4ccccc4)CC3)ccc21 | DU-145 prostate | > 100 µM |
| Cc1cn(Cc2ccccc2CCl)c(=O)n(Cc2ccccc2CCl)c1=O | DU-145 prostate | 3.68 µM |
| CC1=NN(c2ccccc2)C(=O)C1N=Nc1ccc(S(N)(=O)=O)cc1 (configuration not stated) | DU-145 prostate | > 100 µM |
| CCc1nc(N)nc(N)c1C#CC(C)c1cc(-c2ccnc(C)c2)c2oc(C)nc2c1 (configuration not stated) | DU-145 prostate | 7.9 µM |
| COC(=O)C1(C)OC(C)=NC1(C(=O)OC)C(=O)OC (configuration not stated) | DU-145 prostate | > 100 µM |
| Cc1ccc(Nc2cn(COCc3ccccc3)c(=O)[nH]c2=O)cc1 | DU-145 prostate | > 100 µM |
| CC(=O)/C(=C(/Br)I)c1ccccc1 | DU-145 prostate | 31.4 µM |
| Nc1cc(N)c(N=Nc2cccc3c(S(=O)(=O)O)cccc23)cc1N=Nc1cc([N+](=O)[O-])ccc1O | DU-145 prostate | > 100 µM |
| CCC(=O)c1c(C(F)(F)F)n([O-])c2ccccc2[n+]1=O | DU-145 prostate | 3.27 µM |
| CCOC(=O)NC(=S)NC(C)c1ccccc1 (configuration not stated) | DU-145 prostate | > 100 µM |
| O=c1oc2c(ccc3c(O)cccc32)c2c1CCCC2 | DU-145 prostate | > 100 µM |
| COc1cc(-c2oc3c(OC)c(O)cc(O)c3c(=O)c2OC)ccc1O | DU-145 prostate | > 81.5 µM |
| CCOC(=O)c1c(NC(=O)c2ccc(Br)cc2)sc2c1CCCC2 | DU-145 prostate | > 100 µM |

----------
system: A549 NSCLC; assay: NCI tumour cell line growth inhibition, 48 h
recorded_endpoint: TGI

| compound | reported_measurement |
| --- | --- |
| C=C(C)C(=O)O[C@H]1CC2=CC(CC(C)=C[C@H]3OC(=O)C(=C)C13)OC2=O (stereo partly specified) | > 100 µM |
| COc1cc2c(Cc3cc(OCc4ccccc4)ccc3N)nccc2c(OC)c1OC | > 10 µM |
| CC1=NN(c2ccccc2)C(=O)C1N=Nc1ccc(S(N)(=O)=O)cc1 (stereo unspecified) | > 100 µM |
| O=C1Cc2ccccc2CCc2ccsc21 | > 100 µM |
| CCN1C(=O)CS/C1=N\NC(=O)CSc1nc2ccccc2c(=O)n1CC | > 100 µM |
| O=c1c(Sc2ncccn2)c(Sc2ncccn2)cnn1CCl | 35.5 µM |
| O=C(CN1C(=O)S/C(=C\C(Cl)=C\c2ccccc2)C1=O)NCCCn1ccnc1 | 23.2 µM |
| N#Cc1c(N2CCOCC2)ncn(-c2ccc(Cl)cc2)c1=O | > 100 µM |
| Cc1nc2nn(C)cc2c(=O)n1/N=C/c1ccccc1 | > 100 µM |
| COc1ccc(/C=N\O[Si](C)(C)C(C)(C)C)cc1O[Si](C)(C)C(C)(C)C | 34.9 µM |
| Cc1cc(Cl)ccc1Nc1nc(C(F)(F)F)ccc1C(=O)Nc1cccc(C(F)(F)F)c1 | 18 µM |

----------
tested on: UO-31 renal; experiment: NCI tumour cell line growth inhibition, 48 h
Listed here are compounds together with their documented GI50.
recorded_endpoint: GI50

| compound | reported_measurement |
| --- | --- |
| Cc1cn(Cc2ccccc2CCl)c(=O)n(Cc2ccccc2CCl)c1=O | 1650 nM |
| Cc1c(C(N)=O)sc2c1c(=O)n(Cc1ccccc1)c1nnc(S(=O)(=O)CC(=O)Nc3ccc(Cl)cc3)n21 | 2860 nM |
| C=C1C(=O)O[C@H]2[C@H]1CC/C(CNC(=O)/C=C/c1ccc(Cl)cc1Cl)=C\CC[C@@]1(C)O[C@@H]21 | 1030 nM |
| Cc1ccc(-c2c3c(N)c4c(nc3nc3c2c(C)nn3-c2ccccc2)CCC4)cc1 | 1870 nM |
| COc1ccc2c(c1OC)C(=O)O[C@@H]2[C@H]1c2c(c(Br)c3c(c2OC)OCO3)CCN1C | > 100000 nM |
| CCc1nc(N)nc(N)c1C#CC(C)c1cc(-c2ccnc(C)c2)c2oc(C)nc2c1 (stereo unspecified) | 18.1 nM |
| O=C(Cn1c2ccccc2c2ccncc21)N/N=C\c1ccc2ccccc2c1 | 13300 nM |
| NS(=O)(=O)c1ccc(N2N=C(c3cccs3)CC2c2ccccc2O)cc1 (stereo unspecified) | 4010 nM |
| O=[N+]([O-])c1cc2c(ccc3occc32)o1 | 1990 nM |
| CNC(=O)c1cncc(/C=C/c2c(Cl)cccc2Cl)c1 | 6690 nM |
| Cn1ncnc1C1c2n[nH]c(=O)c3cc(F)cc(c23)NC1c1ccc(F)cc1 (stereo unspecified) | 11900 nM |
